System: U2OS
test_method_notes: cell viability relative to DMSO; higher = less toxic
reported_conditions: 72 h; 1 nM
property_label: cell viability (%)
Just the number please, in %, no unit attached.

Record excerpt, results attached:
Inquiry: Any idea what cell viability was measured for C[C@H](NC(=O)[C@@H](O)c1cc(F)cc(F)c1)C(=O)N[C@@H]1C(=O)N(C)c2ccccc2-c2ccccc21 ?
Reply text: 96

Inquiry: Further, for O=C(O)c1cc2ccccc2s1 ?
Reply text: 103

Inquiry: Further, for CC(=O)/N=c1/[nH]c(C)c(-c2ccc(Cl)c(S(=O)(=O)NCCO)c2)s1 ?
Reply text: 102

Inquiry: Further, for c1nc2c(NC3CCCCC3)nc(Nc3ccc(N4CCOCC4)cc3)nc2[nH]1 ?
Reply text: 99.9

Inquiry: Further, for COc1ccccc1NC(=O)OCC1CCN(C(=O)OC(C)(C)C)CC1 ?
Reply text: 96.8

Others:
Inquiry: Any idea what cell viability was measured for CO/N=C(\C(=O)N[C@@H]1C(=O)N2C(C(=O)O)=C(COC(N)=O)CS[C@H]12)c1ccco1 [CEFUROXIME SODIUM] ?
Reply text: 97.3

Inquiry: Further, for NCCOB(c1ccccc1)c1ccccc1 ?
Reply text: 96

meta.source: the supplement of paper PMC13380429
